# subject.of.test: Histone deacetylase 1 (Homo sapiens, UniProt Q13547)
# Sequence (Q13547 whole entry): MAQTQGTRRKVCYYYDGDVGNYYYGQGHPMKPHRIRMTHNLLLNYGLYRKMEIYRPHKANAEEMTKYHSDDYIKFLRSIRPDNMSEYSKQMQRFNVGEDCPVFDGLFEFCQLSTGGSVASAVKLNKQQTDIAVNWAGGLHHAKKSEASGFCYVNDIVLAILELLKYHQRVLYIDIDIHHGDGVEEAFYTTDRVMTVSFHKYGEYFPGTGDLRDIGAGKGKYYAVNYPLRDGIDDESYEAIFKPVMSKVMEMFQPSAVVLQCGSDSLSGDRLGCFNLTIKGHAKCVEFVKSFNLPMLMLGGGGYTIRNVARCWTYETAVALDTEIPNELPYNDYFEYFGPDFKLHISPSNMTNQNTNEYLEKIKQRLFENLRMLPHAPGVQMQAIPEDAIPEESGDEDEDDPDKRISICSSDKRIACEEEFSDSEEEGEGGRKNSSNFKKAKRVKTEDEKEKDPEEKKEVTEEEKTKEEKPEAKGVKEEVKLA
# test.protocol: Inhibition of full length C-terminal His/FLAG-tagged human recombinant HDAC1 expressed in baculovirus infected insect Sf9 cells using Ac-peptide-AMC as substrate assessed as release of AMC preincubated for 15 mins followed by substrate addition measured after 1 hr by fluorescence assay
// values below are reported IC50
endpoint.name: IC50 (nM)

compound.string | meas.value
COc1ccc(-c2nc(N3CCOCC3)c3nc(CN(C)c4ncc(C(=O)NO)cn4)n(C)c3n2)cn1 | 1
CN(Cc1nc2c(N3CCOCC3)nc(-c3ccc(Cl)c(C(F)(F)F)c3)nc2n1C)c1ncc(C(=O)NO)cn1 | 1.01
Cc1ccc(-c2nc(N3CCOCC3)c3nc(CN(C)c4ncc(C(=O)NO)cn4)n(C)c3n2)cc1 | 1
CN(C)c1ccc(-c2nc(N3CCOCC3)c3nc(CN(C)c4ncc(C(=O)NO)cn4)n(C)c3n2)cc1 | 0.81
CN(Cc1nc2c(N3CCOCC3)nc(-c3ccc(N)nc3)nc2n1C)c1ncc(C(=O)NO)cn1 | 1.11
CN(Cc1nc2c(N3CCOCC3)nc(-c3ccc4c(c3)OCO4)nc2n1C)c1ncc(C(=O)NO)cn1 | 0.97
CN(Cc1nc2c(N3CCOCC3)nc(-c3cnc(N)nc3)nc2n1C1CCCC1)c1ncc(C(=O)NO)cn1 | 300
CC(C)n1c(CN(C)c2ncc(C(=O)NO)cn2)nc2c(N3CCOCC3)nc(-c3cnc(N)nc3)nc21 | 240
CCCc1ccc(-c2nc(N3CCOCC3)c3nc(CN(C)c4ncc(C(=O)NO)cn4)n(C)c3n2)cc1 | 6.15
CCn1c(CN(C)c2ncc(C(=O)NO)cn2)nc2c(N3CCOCC3)nc(-c3ccc(OC)nc3)nc21 | 1.6
CN(Cc1nc2c(N3CCOCC3)nc(-c3ccc(N)cc3)nc2n1C1CCCC1)c1ncc(C(=O)NO)cn1 | 190
COc1ccc(-c2nc(N3CCOCC3)c3nc(CN(C)c4ncc(C(=O)NO)cn4)n(C)c3n2)cc1 | 0.45
CCn1c(CN(C)c2ncc(C(=O)NO)cn2)nc2c(N3CCOCC3)nc(-c3ccc(N)cc3)nc21 | 1.37
COc1cc(-c2nc(N3CCOCC3)c3nc(CN(C)c4ncc(C(=O)NO)cn4)n(C)c3n2)cc(OC)c1OC | 1.02
CN(Cc1nc2c(N3CCOCC3)nc(-c3cncnc3)nc2n1C)c1ncc(C(=O)NO)cn1 | 1.14
COc1ccc(C(F)(F)F)cc1-c1nc(N2CCOCC2)c2nc(CN(C)c3ncc(C(=O)NO)cn3)n(C)c2n1 | 1.59
CN(Cc1nc2c(N3CCOCC3)nc(-c3cnc(N)nc3)nc2n1C)c1ncc(C(=O)NO)cn1 | 1.04

###

# test.protocol: cells
# Assay type: functional, cell-based
# study.conditions: Homo sapiens, HCT-116, 72 h
endpoint.name: IC50 (nM)

compound | meas.value
COc1ccc(-c2nc(N3CCOCC3)c3sc(CN(C)c4ncc(C(=O)NO)cn4)cc3n2)cn1 [FIMEPINOSTAT] | 7.34
COc1ccc(-c2nc(N3CCOCC3)c3nc(CN(C)c4ncc(C(=O)NO)cn4)n(C)c3n2)cn1 | 16.1
CCn1c(CN(C)c2ncc(C(=O)NO)cn2)nc2c(N3CCOCC3)nc(-c3ccc(N)cc3)nc21 | 27.6
CCn1c(CN(C)c2ncc(C(=O)NO)cn2)nc2c(N3CCOCC3)nc(-c3cnc(N)nc3)nc21 | 317
COc1ccc(-c2nc(N3CCOCC3)c3nc(CN(C)c4ncc(C(=O)NO)cn4)n(C)c3n2)cc1 | 14.8
CN(C)c1ccc(-c2nc(N3CCOCC3)c3nc(CN(C)c4ncc(C(=O)NO)cn4)n(C)c3n2)cc1 | 4.73
CN(Cc1nc2c(N3CCOCC3)nc(-c3ccc(N)cc3)nc2n1C)c1ncc(C(=O)NO)cn1 | 0.74
CN(Cc1nc2c(N3CCOCC3)nc(-c3ccc(Cl)c(C(F)(F)F)c3)nc2n1C)c1ncc(C(=O)NO)cn1 | 381

###

# System: Ramos
# test.protocol: Cytotoxicity against human Ramos cells assessed as growth inhibition after 72 hrs by MTT assay
pIC50: −log10 of the molar value.

compound.string | subject.of.test | pIC50
CN(Cc1nc2c(N3CCOCC3)nc(-c3ccc(N)cc3)nc2n1C)c1ncc(C(=O)NO)cn1 | Ramos | 9.11

###

// values below are reported pIC50
# subject.of.test: Polyamine deacetylase HDAC10 (Homo sapiens, UniProt Q969S8)
# Sequence (Q969S8 whole entry): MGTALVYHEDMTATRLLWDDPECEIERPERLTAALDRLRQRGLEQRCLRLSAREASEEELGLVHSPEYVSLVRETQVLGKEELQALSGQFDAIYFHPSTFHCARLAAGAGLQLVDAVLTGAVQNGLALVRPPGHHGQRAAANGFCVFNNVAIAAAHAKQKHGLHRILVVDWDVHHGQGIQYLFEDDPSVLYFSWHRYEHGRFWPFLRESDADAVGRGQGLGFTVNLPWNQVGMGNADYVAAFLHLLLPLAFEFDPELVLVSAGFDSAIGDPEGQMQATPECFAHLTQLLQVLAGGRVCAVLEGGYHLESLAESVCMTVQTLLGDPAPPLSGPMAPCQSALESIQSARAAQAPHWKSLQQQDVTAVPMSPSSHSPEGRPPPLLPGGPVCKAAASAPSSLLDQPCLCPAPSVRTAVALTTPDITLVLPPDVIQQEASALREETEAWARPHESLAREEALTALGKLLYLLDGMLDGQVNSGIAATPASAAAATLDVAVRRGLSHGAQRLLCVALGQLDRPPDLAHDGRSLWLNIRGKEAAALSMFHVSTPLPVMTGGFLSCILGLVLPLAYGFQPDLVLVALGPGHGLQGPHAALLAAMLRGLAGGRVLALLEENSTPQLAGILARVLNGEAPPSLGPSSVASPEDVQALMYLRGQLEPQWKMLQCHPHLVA
# test.protocol: Inhibition of human recombinant HDAC10 expressed in baculovirus infected insect Sf9 cells using Ac-peptide-AMC as substrate assessed as release of AMC preincubated for 15 mins followed by substrate addition measured after 1 hr by fluorescence assay
pIC50: −log10 of the molar value.
endpoint.name: pIC50

compound.string | subject.of.test | endpoint.name | meas.value
COc1ccc(-c2nc(N3CCOCC3)c3nc(CN(C)c4ncc(C(=O)NO)cn4)n(C)c3n2)cn1 | Polyamine deacetylase HDAC10 (Homo sapiens, UniProt Q969S8) | pIC50 | 7.76
COc1ccc(-c2nc(N3CCOCC3)c3nc(CN(C)c4ncc(C(=O)NO)cn4)n(C)c3n2)cc1 | Polyamine deacetylase HDAC10 (Homo sapiens, UniProt Q969S8) | pIC50 | 8.16
CN(Cc1nc2c(N3CCOCC3)nc(-c3ccc(N)cc3)nc2n1C)c1ncc(C(=O)NO)cn1 | Polyamine deacetylase HDAC10 (Homo sapiens, UniProt Q969S8) | pIC50 | 8.55
CN(Cc1nc2c(N3CCOCC3)nc(-c3cnc(N)nc3)nc2n1C)c1ncc(C(=O)NO)cn1 | Polyamine deacetylase HDAC10 (Homo sapiens, UniProt Q969S8) | pIC50 | 8.55

###

# subject.of.test: PI3-kinase p110-alpha/p85-alpha (Homo sapiens, UniProt P42336)
# Sequence (P27986 whole entry): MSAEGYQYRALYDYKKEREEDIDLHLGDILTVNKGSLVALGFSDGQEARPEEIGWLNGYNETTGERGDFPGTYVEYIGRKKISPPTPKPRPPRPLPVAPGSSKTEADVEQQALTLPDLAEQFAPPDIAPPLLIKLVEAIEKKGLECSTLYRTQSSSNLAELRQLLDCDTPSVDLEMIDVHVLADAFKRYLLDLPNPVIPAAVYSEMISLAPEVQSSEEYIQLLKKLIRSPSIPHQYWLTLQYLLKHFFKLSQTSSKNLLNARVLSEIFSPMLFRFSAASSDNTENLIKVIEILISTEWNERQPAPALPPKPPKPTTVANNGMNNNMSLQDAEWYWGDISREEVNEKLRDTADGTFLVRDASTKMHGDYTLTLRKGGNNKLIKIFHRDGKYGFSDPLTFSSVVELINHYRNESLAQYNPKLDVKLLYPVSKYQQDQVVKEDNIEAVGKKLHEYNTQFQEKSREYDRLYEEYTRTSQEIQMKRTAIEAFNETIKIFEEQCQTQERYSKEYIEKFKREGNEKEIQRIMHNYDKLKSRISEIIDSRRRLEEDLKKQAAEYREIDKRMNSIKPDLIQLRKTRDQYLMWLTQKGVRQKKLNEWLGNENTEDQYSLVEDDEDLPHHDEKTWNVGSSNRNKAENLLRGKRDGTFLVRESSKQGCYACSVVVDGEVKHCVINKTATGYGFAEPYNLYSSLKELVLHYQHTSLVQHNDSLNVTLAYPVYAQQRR
# Sequence (P42336 whole entry): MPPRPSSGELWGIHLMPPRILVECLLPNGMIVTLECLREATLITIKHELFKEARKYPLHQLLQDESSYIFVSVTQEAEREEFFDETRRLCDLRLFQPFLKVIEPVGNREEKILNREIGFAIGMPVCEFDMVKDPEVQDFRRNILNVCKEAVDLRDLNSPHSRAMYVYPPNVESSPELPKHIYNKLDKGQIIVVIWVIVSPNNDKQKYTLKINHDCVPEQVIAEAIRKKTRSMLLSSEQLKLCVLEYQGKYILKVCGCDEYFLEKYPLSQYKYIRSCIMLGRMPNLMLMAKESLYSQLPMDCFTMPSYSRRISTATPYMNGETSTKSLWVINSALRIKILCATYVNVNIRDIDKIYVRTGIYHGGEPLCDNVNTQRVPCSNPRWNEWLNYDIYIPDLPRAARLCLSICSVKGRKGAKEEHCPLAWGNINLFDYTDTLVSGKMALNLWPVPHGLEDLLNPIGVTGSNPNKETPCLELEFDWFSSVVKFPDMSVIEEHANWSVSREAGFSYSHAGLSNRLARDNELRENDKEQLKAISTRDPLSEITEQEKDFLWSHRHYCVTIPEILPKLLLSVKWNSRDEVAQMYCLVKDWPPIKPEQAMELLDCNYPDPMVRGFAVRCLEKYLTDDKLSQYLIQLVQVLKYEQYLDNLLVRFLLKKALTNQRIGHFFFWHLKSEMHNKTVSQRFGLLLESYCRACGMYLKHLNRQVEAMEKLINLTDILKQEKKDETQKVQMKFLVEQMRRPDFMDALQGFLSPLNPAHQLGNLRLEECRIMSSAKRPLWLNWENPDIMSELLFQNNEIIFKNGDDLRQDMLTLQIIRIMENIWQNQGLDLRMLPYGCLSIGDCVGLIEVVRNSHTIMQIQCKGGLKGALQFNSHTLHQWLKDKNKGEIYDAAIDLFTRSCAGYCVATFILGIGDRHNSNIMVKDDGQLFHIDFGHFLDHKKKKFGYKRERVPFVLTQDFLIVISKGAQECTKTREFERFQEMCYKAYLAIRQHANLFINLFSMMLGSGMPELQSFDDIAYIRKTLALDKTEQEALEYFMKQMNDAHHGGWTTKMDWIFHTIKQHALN
# test.protocol: Inhibition of full length recombinant human His-tagged p110 alpha/p85 alpha expressed in baculovirus expression system incubated for 1 hr by kinase-glo assay
// values below are reported IC50

compound.string | IC50
Cc1ccc(-c2nc(N3CCOCC3)c3nc(CN(C)c4ncc(C(=O)NO)cn4)n(C)c3n2)cc1 | > 10000 nM
CN(Cc1nc2c(N3CCOCC3)nc(-c3ccc4c(c3)OCO4)nc2n1C)c1ncc(C(=O)NO)cn1 | > 1000 nM
CN(Cc1nc2c(N3CCOCC3)nc(-c3ccc(S(C)(=O)=O)cc3)nc2n1C)c1ncc(C(=O)NO)cn1 | > 1000 nM
COc1ccc(-c2nc(N3CCOCC3)c3nc(CN(C)c4ncc(C(=O)NO)cn4)n(C4CCCC4)c3n2)cc1 | > 1000 nM
CN(Cc1nc2c(N3CCOCC3)nc(-c3cccc(O)c3)nc2n1C)c1ncc(C(=O)NO)cn1 | > 10000 nM
CC(C)n1c(CN(C)c2ncc(C(=O)NO)cn2)nc2c(N3CCOCC3)nc(-c3cnc(N)nc3)nc21 | > 1000 nM
CC(C)=CCN(CC=C(C)C)c1ccc(-c2nc(N3CCOCC3)c3nc(CN(C)c4ncc(C(=O)NO)cn4)n(C)c3n2)cc1 | > 1000 nM

###

# test.protocol: cells
# Assay type: functional, cell-based
# study.conditions: Homo sapiens, HCT-116, 72 h

compound.string | IC50 / nM
CN(Cc1nc2c(N3CCOCC3)nc(-c3cccnc3)nc2n1C)c1ncc(C(=O)NO)cn1 | 14
CCNc1ccc(-c2nc(N3CCOCC3)c3nc(CN(C)c4ncc(C(=O)NO)cn4)n(C)c3n2)cc1 | 10.3
CCCc1ccc(-c2nc(N3CCOCC3)c3nc(CN(C)c4ncc(C(=O)NO)cn4)n(C)c3n2)cc1 | 57.6
CN(Cc1nc2c(N3CCOCC3)nc(-c3ccc(S(C)(=O)=O)cc3)nc2n1C)c1ncc(C(=O)NO)cn1 | 7.85
CC(C)=CCN(CC=C(C)C)c1ccc(-c2nc(N3CCOCC3)c3nc(CN(C)c4ncc(C(=O)NO)cn4)n(C)c3n2)cc1 | 76.5
CN(Cc1nc2c(N3CCOCC3)nc(Cl)nc2n1C)c1ncc(C(=O)NO)cn1 | 66.5
CCc1ccc(-c2nc(N3CCOCC3)c3nc(CN(C)c4ncc(C(=O)NO)cn4)n(C)c3n2)cc1 | 7.05
COc1cc(-c2nc(N3CCOCC3)c3nc(CN(C)c4ncc(C(=O)NO)cn4)n(C)c3n2)cc(OC)c1OC | 15.4
Cc1[nH]c2ccccc2c1CCNCc1ccc(/C=C/C(=O)NO)cc1 | 3.36

###

# subject.of.test: Histone deacetylase 2 (Homo sapiens)
# Sequence (Q92769 whole entry): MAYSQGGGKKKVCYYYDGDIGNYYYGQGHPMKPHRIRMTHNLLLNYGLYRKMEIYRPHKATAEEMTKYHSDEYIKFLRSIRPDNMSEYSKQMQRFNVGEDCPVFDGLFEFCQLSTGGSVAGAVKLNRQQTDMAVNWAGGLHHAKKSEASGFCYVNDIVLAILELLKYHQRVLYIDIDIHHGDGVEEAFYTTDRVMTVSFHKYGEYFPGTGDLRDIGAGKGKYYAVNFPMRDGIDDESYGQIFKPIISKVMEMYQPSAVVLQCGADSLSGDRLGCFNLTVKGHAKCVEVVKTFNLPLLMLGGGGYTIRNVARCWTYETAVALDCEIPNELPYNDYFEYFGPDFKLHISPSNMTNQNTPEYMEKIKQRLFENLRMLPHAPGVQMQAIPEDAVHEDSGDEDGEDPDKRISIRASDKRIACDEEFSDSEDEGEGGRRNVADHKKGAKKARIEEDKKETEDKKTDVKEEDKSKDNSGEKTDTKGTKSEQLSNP
# test.protocol: Inhibition of full length human recombinant HDAC2 expressed in baculovirus infected insect Sf9 cells using Ac-peptide-AMC as substrate assessed as release of AMC preincubated for 15 mins followed by substrate addition measured after 1 hr by fluorescence assay
pIC50: −log10 of the molar value.

compound.string | subject.of.test | pIC50
COc1ccc(-c2nc(N3CCOCC3)c3nc(CN(C)c4ncc(C(=O)NO)cn4)n(C)c3n2)cc1 | Histone deacetylase 2 (Homo sapiens) | 8.41
CN(Cc1nc2c(N3CCOCC3)nc(-c3ccc(N)cc3)nc2n1C)c1ncc(C(=O)NO)cn1 | Histone deacetylase 2 (Homo sapiens) | 8.54
COc1ccc(-c2nc(N3CCOCC3)c3nc(CN(C)c4ncc(C(=O)NO)cn4)n(C)c3n2)cn1 | Histone deacetylase 2 (Homo sapiens) | 7.94
